- testedTarget: ATX (Homo sapiens (Human))
- measurementNotes: ATX enzyme inhibition assay (Amplex UltraRed/choline oxidase/HRP, 16:0 Lyso PC substrate)
- Assay type: biochemical
- conditionNotes: assay buffer pH 8.5; read-out: IC50 (nM) pH 8.5
// NB: equality with 50 nM counts as Not fulfilled; only IC50 strictly below is Fulfilled

Decide: IC50 of CN(c1nc(-c2ccc(F)cc2)c(C#N)s1)c1c2c(nc3c(F)cc(N4CC5(CN(CC(=O)N6CC(CO)C6)C5)C4)cc13)CC2 [Example A18] strictly below 50 nM? Not fulfilled

Is IC50 of CN1CC[C@H](C(=O)N2CC3(C2)CN(c2cc(F)c4nc5c(c(N(C)c6nc(-c7ccc(F)cc7)c(C#N)s6)c4c2)CC[C@@H]5O)C3)C1 (single isomer, unassigned) [Example E18-a] strictly below 50 nM? Fulfilled

Below 50 nM on IC50? Entry CN(c1nc(-c2ccc(F)cc2)c(C#N)s1)c1c2c(nc3ccc(N4CCN(CC(=O)N5CC(O)C5)CC4)nc13)CCC2 [Example A10] Not fulfilled

API: query returns whether the molecule falls strictly under 50 nM in IC50. Query: C[C@H]1CN(CC(=O)N2CC(O)C2)CCN1c1cc(F)c2nc3c(c(N(C)c4nc(-c5ccc(F)cc5)c(C#N)s4)c2c1)COC3 [Example A30] Fulfilled

Strictly below 50 nM in IC50? C[C@H]1CN(c2cc(F)c3nc4c(c(N(C)c5nc(-c6ccc(F)cc6)c(C#N)s5)c3c2)CC[C@@H]4O)CCN1CC(=O)N1CC(O)C1 (single isomer, unassigned) [Example E8-a] Fulfilled

----------
Hi there, I'd appreciate the recorded IC50 for every entry that follows.
- System: plasma LPA 18:1 and LPA 18:2
- measurementNotes: Human plasma ex vivo assay (LPA 18:1 / 18:2 by LC-MS/MS)
- Assay type: biochemical
- conditionNotes: 37° C., 2 hours, LPA 18:1, read-out: Human plasma ex vivo assay IC50 (18:1 LPA)
Answer format: numeric, nM implied, no suffix.

Recorded IC50 (molecule CN(c1nc(-c2ccc(F)cc2)c(C#N)s1)c1c2c(nc3c(F)cc(N4CC5(CN(C(=O)[C@@H]6CCOC6)C5)C4)cc13)[C@@H](O)CC2 (single isomer, unassigned) ): 385

IC50 for `CN(c1nc(-c2ccc(F)cc2)c(C#N)s1)c1c2c(nc3c(F)cc(N4CC5(CN(C(=O)C6(O)CCOCC6)C5)C4)cc13)COC2` is 677

In plain terms, `Cc1cc(N2CC3(CN(C(=O)C(C)(C)O)C3)C2)cc2c(N(C)c3nc(-c4ccc(F)cc4)c(C#N)s3)c3c(nc12)CC3` has a documented IC50 of 588

IC50 in this record for CN(c1nc(-c2ccc(F)cc2)c(C#N)s1)c1c2c(nc3c(F)cc(N4CC5(CCN(CC(=O)N6CC(O)C6)CC5)C4)cc13)C(O)CC2 (stereo not drawn) : 584

Short answer for `Cc1cc(N2CC3(CN(C(=O)C(C)(C)O)C3)C2)nc2c(N(C)c3nc(-c4ccc(F)cc4)c(C#N)s3)c3c(nc12)CC3` : IC50 was 251

Record CN(c1nc(-c2ccc(F)cc2)c(C#N)s1)c1c2c(nc3c(F)cc(N4CC5(CN(C(=O)C6CCC(=O)O6)C5)C4)cc13)C(O)CC2 (stereo not drawn) . Reported IC50: 332

----------
- measurementNotes: Pharmacokinetic test in mice
- Format: in vivo, ICR mice
- conditionNotes: male, ICR, mouse, plasma, 5 mg/kg, PO - 5 mpk
attributeMeasured: half-life (h)
The figure you give is taken to be in h; do not add the unit.

According to the records, this compound Cc1cc(N2CC3(CN(C(=O)C(C)(C)O)C3)C2)cc2c(N(C)c3nc(-c4ccc(F)cc4)c(C#N)s3)c3c(nc12)C(O)CC3 (centres unmarked) [Example E26] displays half-life of 2.16

The compound Cc1cc(N2CC3(CN(C(=O)C(C)(C)O)C3)C2)nc2c(N(C)c3nc(-c4ccc(F)cc4)c(C#N)s3)c3c(nc12)CC3 [Example C29] showed half-life equal to 1.89

The compound listed as CN(c1nc(-c2ccc(F)cc2)c(C#N)s1)c1c2c(nc3c(F)cc(N4CC5(CN(C(=O)[C@@H]6CCOC6)C5)C4)cc13)CC2 [Example C8] has a reported half-life of 2.4

Entry under test: CN(c1nc(-c2ccc(F)cc2)c(C#N)s1)c1c2c(nc3c(F)cc(N4CC5(CN(C(=O)C(C)(C)O)C5)C4)cc13)CCC2 [Example C32] . Its half-life was 2.56

Lab book: half-life of CN(c1nc(-c2ccc(F)cc2)c(C#N)s1)c1c2c(nc3c(F)cc(N4CC5(CN(C(=O)C(C)(C)O)C5)C4)cc13)[C@@H](O)CC2 (single isomer, unassigned) [Example E16-a] noted as 2.22

Measured half-life of CN(c1nc(-c2ccc(F)cc2)c(C#N)s1)c1c2c(nc3ncc(N4CC5(CN(C(=O)[C@@H]6CCOC6)C5)C4)cc13)CC2 [Example C17] : 2.13

Lab book: half-life of Cc1cc(N2CC3(CN(C(=O)C(C)(C)O)C3)C2)nc2c(N(C)c3nc(-c4ccc(F)cc4)c(C#N)s3)c3c(nc12)C(C)(O)CC3 (centres unmarked) [Example E25] noted as 2.66

The recorded half-life for entry CN(c1nc(-c2ccc(F)cc2)c(C#N)s1)c1c2c(nc3c(F)cc(N4CC5(CN(C(=O)[C@H]6CCOC6)C5)C4)cc13)COC2 [Example C18] equals 2.79

----------
- Test system: plasma LPA 18:1 and LPA 18:2
- measurementNotes: Human plasma ex vivo assay (LPA 18:1 / 18:2 by LC-MS/MS)
- Format: biochemical
- conditionNotes: 37° C., 2 hours, LPA 18:1, read-out: Human plasma ex vivo assay IC50 (18:1 LPA)
attributeMeasured: IC50 (µM)
# number only, unit µM dropped from output

Entry CN(c1nc(-c2ccc(F)cc2)c(C#N)s1)c1c2c(nc3c(F)cc(N4CC5(CN(C(=O)[C@@H]6CCCN6C)C5)C4)cc13)C(O)CC2 (stereo partly drawn) , tested on plasma LPA 18:1 and LPA 18:2, has a reported IC50 of 0.348

Value (IC50, plasma LPA 18:1 and LPA 18:2) for record C[C@@H]1CN(CC(=O)N2CC(O)C2)CCN1c1cc(F)c2nc3c(c(N(C)c4nc(-c5ccc(F)cc5)c(C#N)s4)c2c1)CC[C@H]3O (single isomer, unassigned) = 0.387

Form field IC50 for item CN(c1nc(-c2ccc(F)cc2)c(C#N)s1)c1c2c(nc3c(F)cc(N4CC5(CN(C(=O)[C@@H]6CCCO6)C5)C4)cc13)[C@@H](O)CC2 (single isomer, unassigned) on plasma LPA 18:1 and LPA 18:2: 0.725

Bench note, plasma LPA 18:1 and LPA 18:2: CN(c1nc(-c2ccc(F)cc2)c(C#N)s1)c1c2c(nc3c(F)cc(N4CC5(CN(C(=O)CO)C5)C4)cc13)C(O)CC2 (stereo not drawn) , IC50 reads 0.317

Reported plasma LPA 18:1 and LPA 18:2 IC50 for item `CN(c1nc(-c2ccc(F)cc2)c(C#N)s1)c1c2c(nc3c(F)cc(N4CCN(CC(=O)N5CC(CO)C5)CC4)cc13)CCC2` was 0.2

The reported IC50 value, plasma LPA 18:1 and LPA 18:2, for C[C@@H]1CN(c2cc(F)c3nc4c(c(N(C)c5nc(-c6ccc(F)cc6)c(C#N)s5)c3c2)CCC4O)CCN1CC(=O)N1CC(O)C1 (stereo partly drawn) reads 0.16

----------
For each record, write down the corresponding IC50.
- Test system: plasma LPA 18:1 and LPA 18:2
- measurementNotes: Human plasma ex vivo assay (LPA 18:1 / 18:2 by LC-MS/MS)
- Format: biochemical
- conditionNotes: 37° C., 2 hours, LPA 18:1, read-out: Human plasma ex vivo assay IC50 (18:1 LPA)
Record the value in nM, omitting the unit from your answer.

Entry CN(c1nc(-c2ccc(F)cc2)c(C#N)s1)c1c2c(nc3c(F)cc(N4CC5(CN(C(=O)[C@@H]6CCOC6)C5)C4)cc13)CCC2 [Example C2] ; assay system plasma LPA 18:1 and LPA 18:2; IC50 recorded at 402

Form field, IC50 with plasma LPA 18:1 and LPA 18:2, item CN(c1nc(-c2ccc(F)cc2)c(C#N)s1)c1c2c(nc3c(F)cc(N4CC5(CN(CC(=O)N6CC(CO)C6)C5)C4)cc13)CCC2 [Example A25] : 251

Tested on plasma LPA 18:1 and LPA 18:2: CN(c1nc(-c2ccc(F)cc2)c(C#N)s1)c1c2c(nc3c(F)cc(N4CC5(CN(C(=O)C6(O)CCOCC6)C5)C4)cc13)[C@@H](O)CC2 (single isomer, unassigned) [Example E15-a] . Observed IC50: 392
